# Tested on: PfAP2-LT AP2 domain (GST-tagged)
# protocol-text: gcPBM binding intensity (ln(normalized median fluorescence intensity)); higher = stronger DNA binding
In all, about 25,000 sequences were measured (“ln(normalized median fluorescence intensity)”: median about 8.9, highest 2% from about 10 on). This excerpt belongs to a sample that is enriched for the highest values.
For each entry below, report its gcPBM binding intensity (ln) value.
The answer should be a number; do not append a unit.

Request: For ATGAGTTACATGGGAAAAATATATATATATATATAT [CACACA_negctrl_site579] , what is its reported gcPBM binding intensity (ln)?
Response: 9.8

Request: For TATATATATAAACACACACACACATATATATATATT [CACACA_site8814] , what is its reported gcPBM binding intensity (ln)?
Response: 9.84

Request: For TATATTAAGAAACACACACACATATATATATATATA [CACACA_site1609] , what is its reported gcPBM binding intensity (ln)?
Response: 9.82

Request: For TATATATATAAACACACACACATATATATATATATA [CACACA_site4584] , what is its reported gcPBM binding intensity (ln)?
Response: 9.94

###

# System: PfAP2-LT AP2 domain (GST-tagged)
# protocol-text: gcPBM binding intensity (ln(normalized median fluorescence intensity)); higher = stronger DNA binding
In all, about 25,000 sequences were measured (“ln(normalized median fluorescence intensity)”: median about 8.9, highest 2% from about 10 on). The full list was thinned out, with the highest values kept by preference.
measured-metric: gcPBM binding intensity (ln)
The answer should be a number; do not append a unit.

Request: For TATAACAATTTTTATGCATGCGACTATAATATTTTT [TGCATGCA_site508] , what is its reported gcPBM binding intensity (ln)?
Response: 8.92

Request: For AATATTCTATATGATACATGCATGATGGAATAAAAA [TGCATGCA_site980] , what is its reported gcPBM binding intensity (ln)?
Response: 8.93

Request: For AATTAAAATACAAATGTATGCATGTCTCATATAGAA [TGCATGCA_site822] , what is its reported gcPBM binding intensity (ln)?
Response: 8.78

Request: For TAAATTATCTTTTTATGTACTTATTTTTATTATTTT [XGTACX_site3158] , what is its reported gcPBM binding intensity (ln)?
Response: 8.73

Request: For TTCTTTTTTCTTTATGGTACGTGTAATATATATCAA [XGTACX_site7960] , what is its reported gcPBM binding intensity (ln)?
Response: 8.82

Request: For GGTCATCATCGGTATTGTACAAAAATGTGAAAATTA [XGTACX_site639] , what is its reported gcPBM binding intensity (ln)?
Response: 8.73

Request: For AAAATAAAATAAAACACAAAAAAATAAAACAAAATA [CACACA_negctrl_site16] , what is its reported gcPBM binding intensity (ln)?
Response: 8.87

Request: For TATTATATATATGGAAGTACAGGTATATCGTTTTTC [XGTACX_site3771] , what is its reported gcPBM binding intensity (ln)?
Response: 8.73

###

# System: PfAP2-LT AP2 domain (GST-tagged)
# protocol-text: gcPBM binding intensity (ln(normalized median fluorescence intensity)); higher = stronger DNA binding
Over roughly 25,000 sequences, “ln(normalized median fluorescence intensity)” has its median near 8.9; the highest 2% begin near 10. Only a selection was taken, and the highest values are over-represented in it overall.
measured-metric: gcPBM binding intensity (ln)
The answer should be a number; do not append a unit.

Request: For TTCGTTATATTTTGATGTACTGATTCATATATATAT [XGTACX_site1835] , what is its reported gcPBM binding intensity (ln)?
Response: 9.09

Request: For AAATTTTCACTTCAAAAACACACGTATTTTTTTCCT [CACACA_site3813] , what is its reported gcPBM binding intensity (ln)?
Response: 8.8

Request: For CTAAATATATAAAAAAGTACAAAATAAATAATAATT [XGTACX_site2442] , what is its reported gcPBM binding intensity (ln)?
Response: 8.79
